- protocol summary: t1/2 in canine liver
- Assay type: ADME, Canis lupus familiaris
- experimental conditions: dog
Can you tell me half-life for the items I'm about to list?
Your answer is read as min, so omit the unit and give the number.

Value of measured half-life for the entry CC(C)(C)NCC(O)COC(=O)c1ccc(F)cc1 (stereo not drawn) : 66

Value of measured half-life for the entry CC(C)(C)NCC(O)COC(=O)c1ccccc1O (stereo not drawn) : 31

Value of measured half-life for the entry COc1ccc(C(=O)OCC(O)CNC(C)C)cc1 (stereo not drawn) : 37

Value of measured half-life for the entry CC(C)(CNC(=O)Cc1ccccc1)NCC(O)COC(=O)c1ccccc1F (stereo not drawn) : 25

Value of measured half-life for the entry CC(C)(C)NCC(O)COC(=O)c1ccccc1 (stereo not drawn) : 20

Value of measured half-life for the entry CC(C)(C)NCC(O)COC(=O)c1ccccc1Cl (stereo not drawn) : 72

Value of measured half-life for the entry Cc1ccccc1C(=O)OCC(O)CNC(C)C (stereo not drawn) : 147

Value of measured half-life for the entry CC(C)NCC(O)COC(=O)c1ccccc1 (stereo not drawn) : 8

Value of measured half-life for the entry CCOC(=O)NCC(C)(C)NCC(O)COC(=O)c1ccccc1F (stereo not drawn) : 1

Value of measured half-life for the entry CC(C)(C)NCC(O)COC(=O)c1cccc(O)c1 (stereo not drawn) : 62

Value of measured half-life for the entry Cc1ccc(C(=O)OCC(O)CNC(C)C)cc1 (stereo not drawn) : 10.4
